src = the nanobody polyreactivity screen of Harvey et al. (2022)

# Procedure Summary: yeast display, Sf9 membrane polyspecificity reagent, FACS + sequencing; frameworks hold sequencing errors
Quantity Measured: polyreactivity (PSR sort gate)

QVQLVESGGGLDQAGGSLRLSSAASGSIFVDNAMGWYRQAPGKERELVAAISRRGGSTYYADSVKGRFTISRDNAKNTVYLQMNSLKPEDTAVYYCNKKNIQFYQGASDYWGQGTQVTVSS : high polyreactivity
QVQLVESGGGLFQAGGSLRLSCAASGRTFYSNDMGWYRQAPGNERELVAAISWRSGSTHYADSVKGRFTISRDNAKNTVYFQMNSLKPEDTAVFYCAARRRDLVPHYYWGQGTQVTVSS : high polyreactivity
QDQLVESGGGLVQAGGSLRLTCAASGRICTYYAMGWYRKATGKERELVASISRSGGNTYYADSVKGRFTISRDNAKNTVYLQMNSLKPEDTAVYYCAAVYSRLDYWGQGTQVTVSS : high polyreactivity
QVQLVESGGGLVQAGGSLRLSCAASGSIFRGYDMGWYRQPPGKERELVAAISRSGGITYYADSVKGRFTISRDNAKNTVYLNMNSLKPEVTAVYYCAASRAGGYYGKGYSWGQGTQVTVSS : high polyreactivity
QVQLVESGGGLVQAGGSLRFSCAATGSISYGYAMGWYKQAHGKERELVAAISRRGGTTYFADSVKGRFTISRDNAKNSLYLQINSLKAEDTAVYYCNALLPDLAQYDYWGQGTQVTVSS : high polyreactivity
QVQLVESGGGLVQAGGSLRLSCAASGRIFFVNTMGWYRQAPVKERELVATISCSGGSTYYADSVKGRFTISRDNAKNTVYLQMNTLKPEDTAVYYCNRSLTGYDELGYPVPYTYDYWGQGTQVTVSS : low polyreactivity

Switching to the query record.
Which value of polyreactivity (PSR sort gate) has been reported for QVQLVESGGGLVQAGGSLRLSCAASGRIFTGNAMGWYRQAPGKERELVASITYNGGRTYYADSVKGRFTISRDKAKNTVYLPMNRLKPEDTAVYYCNAGDYGFGYEYWGQGTQVTVSS in the records? low polyreactivity

----------
# Procedure Summary: yeast display, Sf9 membrane polyspecificity reagent, FACS + sequencing; frameworks hold sequencing errors
Quantity Measured: polyreactivity (PSR sort gate)

QVQLVESGGVLVQAGGSLRLSCAASGRIFLEYAMGWYRQAPGKERELVAAISRGGGRTYYADSVKGRFTISRDNAKNTVYLLMNSLKPEDTAVYYCAAGLAKGYWASFAYRYDYWGQGTQVTVSS : high polyreactivity
QVQLVESGGGLVQAGGSLRLSCAASGITFEKYAMGWYRQAPGKERELVAAITSSGGSTYYADSVKGRFTISRDNAKNTVYLQMNSLKPEDTAVYYCKARYYYADRTSGGYYYWGQGTQVTVSS : high polyreactivity

----------
# Procedure Summary: yeast display, Sf9 membrane polyspecificity reagent, FACS + sequencing; frameworks hold sequencing errors
Quantity Measured: polyreactivity (PSR sort gate)

QVQLVESWGGLVQAGLSLRLSCAASGIMGWYRQAPGKERELVDAITYTGDSTFYADSVKGRFTISRDNPKNTVYVQINSLKAEDTAVYDCATKYGTSNWYNTYYYWGQGTQVTVSS : low polyreactivity
QVQLVESGGGLVQAGGSLRLSCAASGTTLGYYTMGWYRQAPGKERELVAAIDWSGGSTYYADSVKGRFTISRDNAKNTVYLQMNSLKPEDTAVYYCNAEPWDPFYSPGRGGMDYWGQGTQVNVSS : low polyreactivity
